Catalogue of Kochia plant response rating readings, one per entry.
# Test system: kochia (Bassia scoparia)
# runDescription: Test A preemergence, kochia
# Type: in vivo
# runParameters: Preemergence, 125 g ai/ha; visual injury on 0 to 100 scale (0 no effect, 100 complete control), approximately 10 days
measurementKind: Kochia plant response rating

> print(dat)
                                   compound  endpointresult
1  Cc1cc(C)c(N(S(=O)(=O)C(F)(F)F)S(=O)(=O)C(F)(F)F)cc1C1=NOC2(CCCCCC2)C1 [Compound 158]              70
2  Cc1cc(C)c(-c2ccnn(CC(F)(F)F)c2=O)cc1NS(=O)(=O)C(F)(F)F [Compound 57]              60
3  Cc1cc(C)c(C2=NOC3(C2)CC(C)CC(C)C3)cc1NS(=O)(=O)C(F)(F)F (single isomer, unassigned) [Compound 167]              40
4  Cc1cc(C(F)(F)F)c(NS(=O)(=O)C(F)(F)F)cc1C(=O)N1CCCCC1 [Compound 165]              90

* * *

Catalogue of Plant response rating, Ryegrass, Italian readings, one per entry.
# System: Ryegrass, Italian (Italian ryegrass, Lolium multiflorum)
# runDescription: Test A1 preemergence, Ryegrass, Italian
# Type: in vivo
# runParameters: 125 g ai/ha, 0 to 100 scale, 0 no effect, 100 complete control
# Source text: […]
measurementKind: Plant response rating, Ryegrass, Italian

> print(dat)
                                    compound                                       tgt  endpointresult
 1  Cc1cc(C)c(N(COC(=O)OC(C)(C)C)S(=O)(=O)C(F)(F)F)cc1C1=NOC2CCCC12 (centres unmarked) [Compound 316]  Ryegrass, Italian (Italian ryegrass, Lolium multiflorum)              50
 2  CCc1cc(C)c(C2=NOC3(CCCC3)C2)cc1NS(=O)(=O)C(F)(F)F [Compound 311]  Ryegrass, Italian (Italian ryegrass, Lolium multiflorum)              60
 3  COC1CCC2(CC1)CCN(c1cc(NS(=O)(=O)C(F)(F)F)c(C)cc1C)C2=O (centres unmarked) [Compound 398]  Ryegrass, Italian (Italian ryegrass, Lolium multiflorum)             100
 4  Cc1cc(C)c(N(COC(=O)C(C)C)S(=O)(=O)C(F)(F)F)cc1C1=NOC2CCCC12 (centres unmarked) [Compound 308]  Ryegrass, Italian (Italian ryegrass, Lolium multiflorum)              90
 5  COC(=O)OCN(c1cc(C2=NOC3CCCC23)c(C)cc1C)S(=O)(=O)C(F)(F)F (centres unmarked) [Compound 315]  Ryegrass, Italian (Italian ryegrass, Lolium multiflorum)             100
 6  Cc1ccc(C2=NOC3CCCC23)cc1NS(=O)(=O)C(F)(F)F (centres unmarked) [Compound 377]  Ryegrass, Italian (Italian ryegrass, Lolium multiflorum)              40
 7  Cc1cc(C)c(N(COC(=O)N(C)C)S(=O)(=O)C(F)(F)F)cc1C1=NOC2CCCC12 (centres unmarked) [Compound 317]  Ryegrass, Italian (Italian ryegrass, Lolium multiflorum)               0
 8  Cc1c(NS(=O)(=O)C(F)(F)F)cc(C(=O)N2CCOCC2)c(C)c1Cl [Compound 290]  Ryegrass, Italian (Italian ryegrass, Lolium multiflorum)              60
 9  Cc1c(C(=O)N2CCC(F)(F)CC2)cc(N(COC(=O)C(C)(C)C)S(=O)(=O)C(F)(F)F)c(C)c1C [Compound 360]  Ryegrass, Italian (Italian ryegrass, Lolium multiflorum)              30
10  Cc1c(C(=O)N2CCOCC2)cc(N(COC(=O)C(C)(C)C)S(=O)(=O)C(F)(F)F)c(C)c1C [Compound 324]  Ryegrass, Italian (Italian ryegrass, Lolium multiflorum)             100
11  Cc1cc(C)c(C2=NOC(OCC(C)C)C2)cc1NS(=O)(=O)C(F)(F)F (centres unmarked) [Compound 322]  Ryegrass, Italian (Italian ryegrass, Lolium multiflorum)              90
12  COCC1CC(c2cc(NS(=O)(=O)C(F)(F)F)c(C)cc2C)=NO1 (centres unmarked) [Compound 319]  Ryegrass, Italian (Italian ryegrass, Lolium multiflorum)              90
13  Cc1c(NS(=O)(=O)C(F)(F)F)cc(C(=O)N2CCC(F)CC2)c(C)c1C [Compound 358]  Ryegrass, Italian (Italian ryegrass, Lolium multiflorum)              30
14  Cc1c(C(=O)N2CCSCC2)cc(N(COC(=O)C(C)(C)C)S(=O)(=O)C(F)(F)F)c(C)c1C [Compound 285]  Ryegrass, Italian (Italian ryegrass, Lolium multiflorum)               0
15  Cc1c(C(=O)N2CCCCC2)cc(NS(=O)(=O)C(F)(F)F)c(Cl)c1F [Compound 333]  Ryegrass, Italian (Italian ryegrass, Lolium multiflorum)              50
16  CCC1CC(c2cc(NS(=O)(=O)C(F)(F)F)c(C)cc2C)=NO1 (centres unmarked) [Compound 375]  Ryegrass, Italian (Italian ryegrass, Lolium multiflorum)              80
17  Cc1cc(C)c(N(COC(=O)C(C)(C)C)S(=O)(=O)C(F)(F)F)cc1N1CCC2(CCC(C)CC2)C1=O (centres unmarked) [Compound 401]  Ryegrass, Italian (Italian ryegrass, Lolium multiflorum)              30
18  Cc1cc(C2CC2)c(C2=NOC3CCCC23)cc1N(COC(=O)C(C)(C)C)S(=O)(=O)C(F)(F)F (centres unmarked) [Compound 355]  Ryegrass, Italian (Italian ryegrass, Lolium multiflorum)              30
19  Cc1cc(C)c(N(S(=O)(=O)C(F)(F)F)S(=O)(=O)C(F)(F)F)cc1N1CCC2(CCC(C(F)(F)F)CC2)C1=O (centres unmarked) [Compound 399]  Ryegrass, Italian (Italian ryegrass, Lolium multiflorum)              90
20  Cc1cc(C)c(C2=NOC(C(C)C)C2)cc1NS(=O)(=O)C(F)(F)F (centres unmarked) [Compound 381]  Ryegrass, Italian (Italian ryegrass, Lolium multiflorum)              90
21  Cc1cc(C2CC2)c(C2=NOC3CCCC23)cc1NS(=O)(=O)C(F)(F)F (centres unmarked) [Compound 307]  Ryegrass, Italian (Italian ryegrass, Lolium multiflorum)             100
22  COc1cc(C)c(C2=NOC3(CCCC3)C2)cc1NS(=O)(=O)C(F)(F)F [Compound 304]  Ryegrass, Italian (Italian ryegrass, Lolium multiflorum)              50
23  Cc1c(C(=O)N2C[C@@H](C)O[C@@H](C)C2)cc(N(COC(=O)C(C)(C)C)S(=O)(=O)C(F)(F)F)c(C)c1C [Compound 331]  Ryegrass, Italian (Italian ryegrass, Lolium multiflorum)               0
24  Cc1cc(C2CC2)c(NS(=O)(=O)C(F)(F)F)cc1C1=NOC2(CCCC2)C1 [Compound 313]  Ryegrass, Italian (Italian ryegrass, Lolium multiflorum)              50
25  Cc1c(C(=O)N(C)C)cc(NS(=O)(=O)C(F)(F)F)c(Cl)c1F [Compound 320]  Ryegrass, Italian (Italian ryegrass, Lolium multiflorum)              90
26  Cc1c(NS(=O)(=O)C(F)(F)F)cc(C(=O)N2CC(C)OC(C)C2)c(C)c1C (centres unmarked) [Compound 327]  Ryegrass, Italian (Italian ryegrass, Lolium multiflorum)              50
27  Cc1cc(Br)c(NS(=O)(=O)C(F)(F)F)cc1C1=NOC2(CCCC2)C1 [Compound 309]  Ryegrass, Italian (Italian ryegrass, Lolium multiflorum)              90
28  COC1CCCN(C(=O)c2cc(NS(=O)(=O)C(F)(F)F)c(Cl)c(F)c2C)C1 (centres unmarked) [Compound 334]  Ryegrass, Italian (Italian ryegrass, Lolium multiflorum)              50
29  Cc1c(C(=O)N2CCOCC2)cc(NS(=O)(=O)C(F)(F)F)c(Cl)c1F [Compound 321]  Ryegrass, Italian (Italian ryegrass, Lolium multiflorum)              60
30  CCOC(=O)N(c1cc(C(=O)N2CCOCC2)c(C)cc1C)S(=O)(=O)C(F)(F)F [Compound 363]  Ryegrass, Italian (Italian ryegrass, Lolium multiflorum)             100
31  C#CCN(C)C(=O)c1cc(NS(=O)(=O)C(F)(F)F)c(Cl)c(F)c1C [Compound 337]  Ryegrass, Italian (Italian ryegrass, Lolium multiflorum)             100
32  COc1cc(C)c(NS(=O)(=O)C(F)(F)F)cc1C1=NOC2CCCC12 (centres unmarked) [Compound 312]  Ryegrass, Italian (Italian ryegrass, Lolium multiflorum)              40

From: patent US20230278972A1
